# System: HepG2
# assay-protocol: Cytotoxicity in human HepG2 cells assessed as reduction in cell viability incubated for 24 hrs by MTT assay
# Format: functional, cell-based
# conditions-used: HepG2, 24 h
So basically, if IC50 comes in under 10 µM it's Condition met, and if it's 10 µM or more it's Condition not met.

molecule	label
C[C@H]1[C@H](C)CC[C@]2(C(=O)NCCCCCCN)CC[C@]3(C)C(=CC[C@@H]4[C@@]5(C)CC[C@H](O)C(C)(C)[C@@H]5CC[C@]43C)[C@H]12	Condition not met
CC(=O)O[C@H]1CC[C@]2(C)[C@H]3CC=C4[C@@H]5[C@@H](C)[C@H](C)CC[C@]5(C(=O)N5CCNCC5C)CC[C@@]4(C)[C@]3(C)CC[C@H]2C1(C)C (some centres not stated)	Condition met
C[C@H]1[C@H](C)CC[C@]2(C(=O)NCCCCN)CC[C@]3(C)C(=CC[C@@H]4[C@@]5(C)CC[C@H](O)C(C)(C)[C@@H]5CC[C@]43C)[C@H]12	Condition not met
CC(=O)O[C@H]1CC[C@]2(C)[C@H]3CC=C4[C@@H]5[C@@H](C)[C@H](C)CC[C@]5(C(=O)NCCCCCCCCN)CC[C@@]4(C)[C@]3(C)CC[C@H]2C1(C)C	Condition not met
CC(=O)O[C@H]1CC[C@]2(C)[C@H]3CC=C4[C@@H]5[C@@H](C)[C@H](C)CC[C@]5(C(=O)NCCN)CC[C@@]4(C)[C@]3(C)CC[C@H]2C1(C)C	Condition not met
CC(=O)O[C@H]1CC[C@]2(C)[C@H]3CC=C4[C@@H]5[C@@H](C)[C@H](C)CC[C@]5(C(=O)NCCCCC(C)N)CC[C@@]4(C)[C@]3(C)CC[C@H]2C1(C)C (some centres not stated)	Condition met
COC(=O)C(CO)NC(=O)[C@]12CC[C@@H](C)[C@@](C)(O)[C@H]1C1=CC(=O)[C@@H]3[C@@]4(C)CC[C@H](OC(C)=O)[C@](C)(COC(C)=O)[C@@H]4CC[C@@]3(C)[C@]1(C)CC2 (some centres not stated)	Condition met
CC(=O)O[C@H]1CC[C@]2(C)[C@H]3CC=C4[C@@H]5[C@@H](C)[C@H](C)CC[C@]5(C(=O)N5CCNCC5)CC[C@@]4(C)[C@]3(C)CC[C@H]2C1(C)C	Condition met
C[C@H]1[C@H](C)CC[C@]2(C(=O)N3CCNCC3)CC[C@]3(C)C(=CC[C@@H]4[C@@]5(C)CC[C@H](O)C(C)(C)[C@@H]5CC[C@]43C)[C@H]12	Condition met
C[C@H]1[C@H](C)CC[C@]2(C(=O)NCCN)CC[C@]3(C)C(=CC[C@@H]4[C@@]5(C)CC[C@H](O)C(C)(C)[C@@H]5CC[C@]43C)[C@H]12	Condition not met
C[C@H]1[C@H](C)CC[C@]2(C(N)=O)CC[C@]3(C)C(=CC[C@@H]4[C@@]5(C)CC[C@H](OC(=O)c6ccccc6)C(C)(C)[C@@H]5CC[C@]43C)[C@H]12	Condition met
CC(=O)O[C@H]1CC[C@]2(C)[C@H]3CC=C4[C@@H]5[C@@H](C)[C@H](C)CC[C@]5(C(=O)NCCCCCCN)CC[C@@]4(C)[C@]3(C)CC[C@H]2C1(C)C	Condition met
CC(=O)O[C@H]1CC[C@]2(C)[C@H]3CC=C4[C@@H]5[C@@H](C)[C@H](C)CC[C@]5(C(=O)NCCCCN)CC[C@@]4(C)[C@]3(C)CC[C@H]2C1(C)C	Condition not met
C[C@@H]1CC[C@]2(C(=O)NC(Cc3c[nH]c4ccccc34)C(=O)O)CC[C@]3(C)C(=CC(=O)[C@@H]4[C@@]5(C)CC[C@H](O)[C@](C)(CO)[C@@H]5CC[C@]43C)[C@@H]2[C@]1(C)O (some centres not stated)	Condition met
C[C@@H]1CC[C@]2(C(=O)O)CC[C@]3(C)C(=CC(=O)[C@@H]4[C@@]5(C)CC[C@H](O)[C@](C)(CO)[C@@H]5CC[C@]43C)[C@@H]2[C@]1(C)O	Condition met
C[C@H]1[C@H](C)CC[C@]2(C(N)=O)CC[C@]3(C)C(=CC[C@@H]4[C@@]5(C)CC[C@H](OC(=O)CCC(=O)O)C(C)(C)[C@@H]5CC[C@]43C)[C@H]12	Condition met
C[C@H]1[C@H](C)CC[C@]2(C(=O)NCCCCCCCCN)CC[C@]3(C)C(=CC[C@@H]4[C@@]5(C)CC[C@H](O)C(C)(C)[C@@H]5CC[C@]43C)[C@H]12	Condition not met

Cited source for all entries: ChEMBL document CHEMBL4270495
